Tested on: ERK1/2
Assay: ERK-KTR live-cell ERK activity reporter in SH-SY5Y, […] h
Type: cell-based
REPORTED_ENDPOINT: pIC50
Answer as the number alone; pIC50 is minus log10 of concentration in mol/L.

Reported pIC50 for O=C(Nc1ccc2[nH]nc(-c3ccncc3)c2c1)[C@@H]1CCN(CC(=O)N2CCN(c3ccc(-c4ncccn4)cc3)CC2)C1 [SCH, SCH772984] was 7.12
